src = PubChem BioAssay (NCI)

# Test system: MDA-MB-231 breast
# PROTOCOL TEXT: NCI-60 one-dose screen, 48 h (100 = growth as untreated, 0 = no growth, -100 = all killed)
# PROTOCOL CONDITIONS: 10 µM
# Protocol: Cells are grown in 96 well plates and exposed to the test compound for 48 hours. Compounds are tested at a single concentration, which is 10^-5 M for most compounds. The reported endpoint is percent growth (GI% or GIPRCNT), where numbers from 0 - 100% represent growth inhibition, and numbers from -100% - 0 represent cell death. For example, a value of 40 represents 60% growth inhibition. A value of 0 means no net growth occurred over the course of the experiment. […]
About 83,000 compounds went through this panel and 20% of them were active in at least one assay; those are over-represented in the sample as a whole.
Tick 1.0 if growth is 20% or greater. Tick 0.0 if growth is less than 20%.

COC1[C@@H]2C[C@H]3C(C)(C)O[C@@](C/C=C(/C)C(=O)O)(C2=O)[C@]32Oc3c(CC=C(C)C)c4c(c(O)c3C(=O)[C@H]12)C=CC(C)(C)O4 (some centres undefined) | 0.0

Identify whether the reported growth of the following molecule is 20% or greater: CC1=C[C@H]2O[C@@H]3C[C@H]4OC(=O)/C=C\C=C\[C@H]([C@@H](C)O)OCC/C(C)=C/C(=O)OC[C@@]2(CC1)[C@]4(C)[C@]31CO1
0.0

Item NC1CCc2cc(O)c(O)cc2C1 (centres undefined) with growth of 20% or above?
1.0

====

# Test system: HL-60(TB) leukemia
# PROTOCOL TEXT: NCI-60 one-dose screen, 48 h (100 = growth as untreated, 0 = no growth, -100 = all killed)
# PROTOCOL CONDITIONS: 10 µM unless noted
# Description: Growth inhibition of the HL-60(TB) human tumor cell line is measured as a screen for anti-cancer activity. Cells are grown in 96 well plates and exposed to the test compound for 48 hours. Compounds are tested at a single concentration, which is 10^-5 M for most compounds. The reported endpoint is percent growth (GI% or GIPRCNT), where numbers from 0 - 100% represent growth inhibition, and numbers from -100% - 0 represent cell death. For example, a value of 40 represents 60% growth inhibition. […]
Compounds without any hit were thinned out: in the full panel of roughly 83,000, 20% have a hit.
Param label: returns t when growth < 30%, returns f otherwise, including exact equality.

Previously resolved entries follow.
CC(=O)N1N=C(c2cc3ccccc3oc2=O)CC1c1cn(-c2ccccc2)nc1-c1ccc(C)cc1 (centres undefined) | f
CC1(COc2ccc3ncc(C#Cc4cncc(C(=O)Nc5cc(C(C)(C)C)on5)c4)n3n2)COC1 | t
O=C1CSC(=O)N1Cc1cc2ccccc2nc1Cl | f
O=C(/C=C/C=C/c1csc(Br)n1)NO | f

Bench note: check whether NC(=O)c1cc(-c2ccc3ncnc(N4CCc5cc(F)c(Cl)cc54)c3c2)cnc1N shows growth below 30%
t

hey, is growth for COc1cccc2cc(-c3cc4ccccc4[nH]3)/c(=N\NC(=O)c3ccc(Cl)cc3)oc12 lower than 30% or not?
t

====

# System: HL-60(TB) leukemia
# PROTOCOL TEXT: NCI-60 one-dose screen, 48 h
# PROTOCOL CONDITIONS: 10 µM unless noted
The panel holds about 83,000 compounds, 20% with a hit somewhere; the sample as a whole holds those more often. Active and inactive are the calls of the source. The calls were made as follows: active = growth percent below 10; inactive = the rest.
Pick from True (active), False (inactive) when you respond.

As a guide, the following entries are already answered.
O=C(/C=C/c1ccc(Cl)c(Cl)c1)Nc1ncc(Cc2ccc(Cl)c(Cl)c2)s1 | False
NC(N)=Nc1ccc(Oc2cccc(NC(N)=Nc3ccc(I)cc3F)c2)cc1 | False
CC(=O)Oc1ccccc1C(=O)Nc1ccc(C(=O)/C=C/c2cccs2)cc1 | False
C#C[C@]1(O)CC[C@H]2[C@@H]3CC=C4c5sc(C6CCOCC6)nc5CC[C@]4(C)[C@H]3CC[C@@]21C | False
CN(c1ccc(F)cc1)S(=O)(=O)c1ccc(-c2cnc(C3CC3)o2)cc1 | True
CN1c2ccccc2Sc2cc(/C=N/Nc3ccnc4cc(Cl)ccc34)ccc21 | False
CS(=O)(=O)c1ccc(-c2nn(-c3ccccc3)cc2/C=N/NC(=O)c2nc(N)n[nH]2)cc1 | False
Cc1nn(-c2ccccc2)c2ncnc(N/N=C/c3ccccc3)c12 | False

Assay result, entry O=C(CSc1ccc(-c2nc3ccccc3[nH]2)cn1)N1CCN(c2ccccc2F)CC1 — outcome?
False
